Entry source: ChEMBL document CHEMBL5338745

experiment: Half life in Sprague-Dawley rat at 0.5 mg/kg, iv; type: ADME, organism-based; settings: in vivo
quantity kind: half-life (h)
Respond numerically; units are h and should not be typed.

Would you kindly share the measured half-life for C[C@@H]1CCC[C@H](c2ccc(-c3cc(Cl)ccc3-n3cc(Cl)nn3)oc2=O)c2cc(ccn2)-c2c(cnn2C(F)F)NC1=O ? 1

* * *

test: Half life in mouse; format: ADME, organism-based; conditions: in vivo
quantity kind: half-life (h)
Quick note: give the figure in h, leave out the unit.

Requested read-out: half-life. Entry: CC(C)c1cc(-c2ccc3c(c2)[C@H](N)CO3)cc([C@@H](O)CN2CCc3cccc(C(=O)O)c32)c1 3.73

Field request: half-life | item: CC(C)c1cc(CCN2CCc3cccc(C(=O)O)c32)cc(-c2ccc3c(c2)[C@H](N)CO3)c1 9

* * *

IC50, Prothrombin (Homo sapiens), per-entry values.

Form field: IC50 recorded for O=C(O[C@H]1[C@H](OC(=O)c2cc(OS(=O)(=O)[O-])cc(OS(=O)(=O)[O-])c2)[C@H](OC(=O)c2cc(OS(=O)(=O)[O-])cc(OS(=O)(=O)[O-])c2)[C@@H](OC(=O)c2cc(OS(=O)(=O)[O-])cc(OS(=O)(=O)[O-])c2)[C@H](OC(=O)c2cc(OS(=O)(=O)[O-])cc(OS(=O)(=O)[O-])c2)[C@H]1OC(=O)c1cc(OS(=O)(=O)[O-])cc(OS(=O)(=O)[O-])c1)c1cc(OS(=O)(=O)[O-])cc(OS(=O)(=O)[O-])c1.[Na+].[Na+].[Na+].[Na+].[Na+].[Na+].[Na+].[Na+].[Na+].[Na+].[Na+].[Na+] with Prothrombin (Homo sapiens) (enter value) > 40 µM

Lookup: IC50 / Prothrombin (Homo sapiens) / C[C@@H](NC(=O)N1C(=O)[C@H](Cc2ccnc(N)c2)[C@H]1C(=O)O)C1CCCCC1 > 20 µM

* * *

experiment: Half life in rat; type: ADME; conditions: in vivo
quantity kind: half-life

Please look up its half-life: O=C(/C=C/c1cc(Cl)ccc1-n1cnnn1)N[C@@H](CC(=O)N1CCN(c2ccccc2)CC1)C(=O)Nc1ccc(C(=O)O)cc1 1.26 h

* * *

test: Half life in human at 0.6 mg/kg, iv administered for 5 days; type: ADME, organism-based; details: in vivo, time 5 day
quantity kind: half-life
Kindly report the value followed by its unit.

Query: half-life; subject: C[C@@H](NC(=O)N1C(=O)[C@H](Cc2ccnc(N)c2)[C@H]1C(=O)O)C1CCCCC1 45 min

* * *

test: Solubility of the compound; type: physicochemical
quantity kind: solubility

// returns reported solubility for input O=C(/C=C/c1cc(Cl)ccc1-n1cnnn1)N[C@@H](CC(=O)N1CCN(c2ccccc2)CC1)C(=O)Nc1ccc(C(=O)O)cc1 > 5200 µg/mL

* * *

target: Coagulation factor XI (Homo sapiens, UniProt P03951); experiment: Inhibition of FXIa (unknown origin)
Sequence (P03951 19-387 limits assumed): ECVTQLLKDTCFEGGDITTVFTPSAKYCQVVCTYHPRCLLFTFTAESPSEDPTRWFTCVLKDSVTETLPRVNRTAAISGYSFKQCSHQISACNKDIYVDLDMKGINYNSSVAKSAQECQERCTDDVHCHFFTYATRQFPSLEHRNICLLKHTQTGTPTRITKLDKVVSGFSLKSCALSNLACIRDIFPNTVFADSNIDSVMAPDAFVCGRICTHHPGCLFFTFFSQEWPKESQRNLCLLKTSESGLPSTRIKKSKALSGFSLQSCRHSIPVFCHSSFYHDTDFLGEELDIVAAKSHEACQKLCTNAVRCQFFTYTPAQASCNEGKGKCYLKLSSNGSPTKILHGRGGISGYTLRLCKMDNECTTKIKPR
Sequence (P03951 388-625 limits assumed): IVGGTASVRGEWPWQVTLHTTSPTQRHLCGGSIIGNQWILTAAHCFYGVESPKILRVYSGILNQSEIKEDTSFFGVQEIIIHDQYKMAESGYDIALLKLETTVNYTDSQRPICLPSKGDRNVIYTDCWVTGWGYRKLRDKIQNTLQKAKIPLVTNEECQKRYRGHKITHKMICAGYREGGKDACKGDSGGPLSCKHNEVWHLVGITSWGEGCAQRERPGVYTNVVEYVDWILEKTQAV
quantity kind: IC50 (nM)
Your answer should be a plain number; it is taken to be in nM.

Coagulation factor XI (Homo sapiens, UniProt P03951) / IC50 / Nc1ccc(-c2cnc([C@H](CC3CC3)c3ccc(-c4cc(Cl)ccc4-n4cnnn4)c[n+]3[O-])[nH]2)c(Cl)n1 : value? 0.32

Recorded IC50 for O=C(O)c1ccc(NC(=O)[C@H](Cc2ccccc2)n2cnc(-c3cc(Cl)ccc3-n3cc(Cl)nn3)cc2=O)cc1 with Coagulation factor XI (Homo sapiens, UniProt P03951), please? 2.5

State its IC50 on Coagulation factor XI (Homo sapiens, UniProt P03951): Nc1ccc(-c2cnc(Cn3c4c(c(-c5cc(Cl)ccc5-n5cnnn5)cc3=O)OCC4)[nH]2)c(F)n1 1.6

What IC50 appears in the records for this compound with Coagulation factor XI (Homo sapiens, UniProt P03951)? COC(=O)Nc1ccc2c(c1)NC(=O)[C@H](C)CCC[C@H](c1ccc(-c3cc(Cl)ccc3-n3cc(C(F)(F)F)cn3)c[n+]1[O-])c1nc-2c(C)[nH]1 0.9

* * *

biological target: Plasma kallikrein (Homo sapiens, UniProt P03952)
Sequence (P03952 20-390 limits assumed): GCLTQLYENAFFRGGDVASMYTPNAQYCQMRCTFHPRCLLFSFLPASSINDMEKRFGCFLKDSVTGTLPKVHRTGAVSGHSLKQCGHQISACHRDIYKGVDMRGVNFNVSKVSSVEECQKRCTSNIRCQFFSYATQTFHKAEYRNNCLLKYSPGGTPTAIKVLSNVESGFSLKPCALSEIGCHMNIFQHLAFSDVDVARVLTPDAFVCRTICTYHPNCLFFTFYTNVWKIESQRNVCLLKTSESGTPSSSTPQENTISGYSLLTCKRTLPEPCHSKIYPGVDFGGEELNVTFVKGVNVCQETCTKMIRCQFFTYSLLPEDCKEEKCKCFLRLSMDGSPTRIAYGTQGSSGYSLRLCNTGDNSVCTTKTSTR
Sequence (P03952 391-638 limits assumed): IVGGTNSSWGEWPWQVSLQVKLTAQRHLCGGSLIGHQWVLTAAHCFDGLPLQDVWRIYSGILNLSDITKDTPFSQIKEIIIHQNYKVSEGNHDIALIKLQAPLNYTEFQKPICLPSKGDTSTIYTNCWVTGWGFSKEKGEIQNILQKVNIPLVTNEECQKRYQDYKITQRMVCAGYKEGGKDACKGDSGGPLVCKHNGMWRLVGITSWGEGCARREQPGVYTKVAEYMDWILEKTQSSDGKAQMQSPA
Exam item: assign MET to entries whose IC50 is below 60 nM and NOT MET to entries at or above 60 nM. Note that a value of exactly 60 nM receives NOT MET.

hey, is IC50 for O=C(/C=C/c1cc(Cl)ccc1-n1cnnn1)N[C@@H](CC(=O)N1CCN(c2ccccc2)CC1)C(=O)Nc1ccc(C(=O)O)cc1 lower than 60 nM or not? NOT MET

Determine whether this compound shows IC50 lower than 60 nM (ties excluded): Nc1ccc(-c2cnc([C@H](CC3CC3)c3ccc(-c4cc(Cl)ccc4-n4cnnn4)c[n+]3[O-])[nH]2)c(Cl)n1 NOT MET

# check: IC50 < 60 nM for COC(=O)Nc1ccc2c(c1)NC(=O)[C@H](C)CCC[C@H](c1ccc(-c3cc(Cl)ccc3-n3cc(C(F)(F)F)cn3)c[n+]1[O-])c1nc-2c(C)[nH]1 MET

Would you kindly verify if IC50 of O=c1cc(-c2c(-n3cnnn3)ccc(Cl)c2F)cc2n1[C@H](c1ccc(-c3ccnc(CO)c3F)[nH]1)CC2 is strictly less than 60 nM? MET

API: query returns whether the compound falls strictly under 60 nM in IC50. Query: O=C(O)c1ccc(NC(=O)[C@H](Cc2ccccc2)n2cnc(-c3cc(Cl)ccc3-n3cc(Cl)nn3)cc2=O)cc1 NOT MET

State whether 60 nM exceeds IC50 recorded for CC(C)c1cc(-c2ccc3c(c2)[C@H](N)CO3)cc([C@@H](O)CN2CCc3cccc(C(=O)O)c32)c1 . MET

* * *

experiment: Half life in IG dosed Beagle dog measured upto 24 hrs by LC/MS analysis; type: ADME, organism-based, Canis lupus familiaris; conditions: in vivo, po
quantity kind: half-life (h)
Enter your answer as a number in h; do not include the unit.

Sample COc1nn([C@@H](Cc2ccccc2)C(=O)Nc2ccc(C(=O)O)cc2)c(=O)cc1-c1cc(Cl)ccc1C(C)=O — what was its half-life? 4.5

* * *

test: Half life in cynomolgus monkey at 1 mg/kg, iv; format: ADME, organism-based, Macaca fascicularis; conditions: in vivo
quantity kind: half-life (h)
Respond numerically; units are h and should not be typed.

If you can, please state the reported half-life value of [2H]C([2H])([2H])n1ncc2c1-c1ccnc(c1)[C@@H](c1coc(-c3cc(Cl)ccc3-n3cc(Cl)nn3)cc1=O)CCC[C@@H](C)C(=O)N2 . 1.05

* * *

test: Oral bioavailability in Beagle dog measured upto 24 hrs by LC/MS analysis; assay type: ADME, organism-based, Canis lupus familiaris; settings: in vivo
quantity kind: bioavailability (%)
State just the number; it will be interpreted in %.

Recorded bioavailability for COc1nn([C@@H](Cc2ccccc2)C(=O)Nc2ccc(C(=O)O)cc2)c(=O)cc1-c1cc(Cl)ccc1C(C)=O , please? 49.6

* * *

assay: Oral bioavailability in mouse; assay type: ADME, organism-based; conditions: in vivo
quantity kind: bioavailability (%)
Answer format: numeric, % implied, no suffix.

Could you tell me which bioavailability is on file for CC(C)c1cc(-c2ccc3c(c2)[C@H](N)CO3)cc([C@@H](O)CN2CCc3cccc(C(=O)O)c32)c1 ? 100

* * *

molecular target: Plasma kallikrein (Homo sapiens); test: Binding affinity to PKal (unknown origin) assessed as inhibition constant
quantity kind: pKi
Kindly note that pKi refers to -log10 of the concentration in mol/L and answer with the value alone.

Query the reported pKi for Plasma kallikrein (Homo sapiens); item: COC(=O)NCC[C@@H]1Cc2cccc(c2)[C@@H](n2cnc(-c3cc(Cl)ccc3-n3cc(C(F)(F)F)cn3)cc2=O)CCC[C@@H](C)C(=O)N1 5.75

* * *

assay: Metabolic stability in dog liver microsomes assessed as half life; assay type: ADME, Canis lupus familiaris, Microsome
Would you mind telling me the reported half-life of each entry?

Consider the molecule shown here: COCC[C@@H](C(=O)Nc1ccc2nn(C)cc2c1)N1CC(=O)N(c2cc(Cl)ccc2-n2cc(Cl)nn2)CC1=O What is its recorded half-life? > 15 h

Can you look up the measured half-life of CC[C@@H](NC(=O)N1C(=O)[C@H](Cc2ccnc(N)c2)[C@H]1C(=O)N(C)c1nccn1C)c1ccccc1 for me? 2.02 h

* * *

molecular target: UniProt:P03951; experiment: Inhibition of human FXIa by absorbance based analysis
quantity kind: IC50 (nM)
Lab book: enter the figure in nM, no units written.

I'd like to know its IC50. The compound in question is O=C(O)c1cc2cc(NC(=O)[C@H](Cc3ccc(N4CCN(C5CCC(O)CC5)CC4=O)cc3)N3CCN(c4cc(Cl)ccc4-n4cnnn4)C(=O)C3=O)ccc2[nH]1 (stereo partly specified) 1.75

* * *

experiment: Oral bioavailability in Sprague-Dawley rat incubated upto 24 hrs by LC-MS/MS analysis; type: ADME, organism-based; conditions: in vivo
quantity kind: bioavailability (%)
Write the answer as a number in %, unit excluded.

Bench note: what bioavailability did COCC[C@@H](C(=O)Nc1ccc2nn(C)cc2c1)N1CC(=O)N(c2cc(Cl)ccc2-n2cc(Cl)nn2)CC1=O show? 72.5
